The reported numbers originate from PubChem BioAssay (NCI).

Documented growth across a set of molecules
Tested on: SK-MEL-2 melanoma
assay_explanation: NCI-60 one-dose screen, 48 h (100 = growth as untreated, 0 = no growth, -100 = all killed)
run_conditions: 10 µM unless noted
The panel holds about 83,000 compounds, 20% with a hit somewhere; the sample as a whole holds those more often.
Give the quantity in %, number only.

See these solved cases before continuing.
Report the value of growth obtained on SK-MEL-2 melanoma for CC(=O)CCC(=O)OCc1cc(=O)c(O)co1 .
113

Report the value of growth obtained on SK-MEL-2 melanoma for Oc1ccc(C2c3ccccc3Oc3ccccc32)c2cccnc12 .
27.4

Report the value of growth obtained on SK-MEL-2 melanoma for CC(=O)[C@H]1CCC/C=C/[C@@H]2C[C@H](O)C[C@H]2[C@H](O)/C=C/C(=O)O1 .
-14.3

Report the value of growth obtained on SK-MEL-2 melanoma for CC1(C)CC[C@]2(C(=O)O)CC[C@]3(C)C(=CC[C@@H]4[C@@]5(C)Cc6c([nH]c7ccccc67)C(C)(C)[C@@H]5CC[C@]43C)[C@@H]2C1 .
72.6

Report the value of growth obtained on SK-MEL-2 melanoma for COc1cc(/C=C/C(=O)c2nc3cc(F)ccc3nc2C)cc(OC)c1OC .
64.6

Others:
Report the value of growth obtained on SK-MEL-2 melanoma for CCNC(=O)Oc1ccc(/C(=C(\C)c2ccccc2)c2ccc(OCCN(CC)CC)cc2)cc1 .
97.6

Report the value of growth obtained on SK-MEL-2 melanoma for O=[N+]([O-])c1ccc(NC(=S)N/N=C/c2cc3ccccc3n3nnnc23)cc1 .
49.3
